ASSAY_TARGET: FRMPD2_1, Q68DX3
Sequence (Q68DX3 770-861): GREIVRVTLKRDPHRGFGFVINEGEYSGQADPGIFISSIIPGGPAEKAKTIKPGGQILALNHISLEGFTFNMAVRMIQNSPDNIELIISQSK
ASSAY_REMARKS: holdup assay
Parameters: key: below the threshold = too weak to quantify, mostly under pKd 3.1 to 4
CONDITION_CONTEXT: plain residues with an end cap or a label only (N-terminal biotin on a linker: ado-ado)
PARAMETER: pKd

Solved cases below.
• KIEDVEITLV [FCHSD2, O94868] = below the threshold
• KLQNPNQSVV [TYRP1, P17643] = below the threshold
• HLSTRQGTCV [ATRNL1, Q5VV63] = 4.1
• HYPASPDSWV [CTNND2, Q9UQB3] = below the threshold
• AKADAQESRL [PLCB2, Q00722] = below the threshold
• VKQYADVEGF [HNRNPK, P61978;P61978-2] = below the threshold
• SRPHTNETSL [MCC, P23508] = below the threshold
• ATKDKKITTV [EXOC4, Q96A65] = 3.54

Give a short answer stating reported pKd for PSVYSRSQYV [CLDN8, P56748] .
4.36

Give a short answer stating reported pKd for IGHEDLETAV [DGKI, O75912] .
below the threshold
